- Test system: Caco-2 cells
- assayOverview: MTT antiproliferation assay, Caco-2
- Format: cell-based, human
- measurementContext: IC50 of non-cancerous Vero cells divided by IC50 of Caco-2
Where a name gives a salt, the structure may show the parent alone.
Could you please report measured SI values Caco-2 for the items listed next?
Numbers only.

Solved entries:
compound	reportedEndpoint	assayValue
C[C@@H]1CC[C@]2(C(=O)O)CC[C@]3(C(=O)O)C(=CCC4[C@@]5(C)CC[C@H](O[C@H]6O[C@H](C)[C@@H](O)[C@H](O)[C@H]6O)C(C)(C)C5CC[C@]43C)C2[C@H]1C (some centres unmarked)	SI values Caco-2	0.83
C[C@@H]1CC[C@]2(C(=O)O)CC[C@]3(C(=O)O)C(=CCC4[C@@]5(C)CC[C@H](O[C@@H]6O[C@H](C)[C@@H](O)[C@H](O)[C@H]6O)C(C)(C)C5CC[C@]43C)C2[C@H]1C (some centres unmarked)	SI values Caco-2	0.88
COc1cccc2c1C(=O)c1c(O)c3c(c(O)c1C2=O)C[C@@](O)(C(=O)CO)C[C@@H]3O[C@H]1C[C@H](N)[C@H](O)[C@H](C)O1 [Doxorubicin, doxorubicin hydrochloride, reference compound]	SI values Caco-2	0.98
CC1(C)CC[C@]2(C(=O)O)CC[C@]3(C)C(=CC[C@@H]4[C@@]5(C)CC[C@H](O)[C@@](C)(CO)[C@@H]5CC[C@]43C)[C@@H]2C1	SI values Caco-2	1.24

Could you now consider this next compound?
What value of SI values Caco-2 has been reported for the following compound? C[C@]12COCC=C1C[C@H]1c3[nH]c4ccccc4c3CCN1C2=O [Compound 10, latifoliamide C]
1.04
